Target: T1, SARS-CoV-2 spike receptor-binding domain (RBD) (SARS-CoV-2, Wuhan-Hu-1, UniProt P0DTC2)
T1 construct: also called SARS-CoV-2 RBD
Test: SPR; array SPR (Carterra LSA), HC200M chip; IgG captured on immobilised anti-human Fc; antigen as analyte in a 7-point series, RBD 300 nM to 411 pM or trimer 100 nM to 137 pM, in 1x HBSTE with 0.5 mg/mL BSA; association 5 min, dissociation 11 min; one-site model; constants for the trimer are called avidities
Settings: both partners purified
PROPERTY: binding result

BINDER | RESULT
selected anti-SARS-CoV-2 spike antibody G12 (antibody, V domains shown) VH: EVQLVQSGAEVKKPGASVKVSCKVSGYTFSNHAIHWVRQAPGKGLEWMGGINPNIGDTIYAQKFQGRVTMTEDTSTDTAYMELSSLKSEDTAVYYCARDGYGDYRGLYGMDVWGQGTTVTVSS VL: DIQMTQSPSSVSASVGDRVTITCRASQDIGNHLAWYQQKPGKAPKLLIYASSNLASGVPSRFSGSGSGTDFTLTISSLQPEDFANYYCHQYATYPWTFGGGTKVEIK | binds
selected anti-SARS-CoV-2 spike antibody F1 (antibody, V domains shown) VH: EVQLVQSGAEVKKPGASVKVSCKVSGYPFTSYAIHWVRQAPGKGLEWMGGITPYNADTIYAQKFQGRVTMTEDTSTDTAYMELSSLKSEDTAVYYCARDGYSSGYYGMDVWGQGTTVTVSS VL: DIQMTQSPSSVSASVGDRVTITCRASQDIGNHLAWYQQKPGKAPKLLIYASSNLASGVPSRFSGSGSGTDFTLTISSLQPEDFANYYCHQYATYPWTFGGGTKVEIK | binds
selected anti-SARS-CoV-2 spike antibody B11 (antibody, V domains shown) VH: EVQLVQSGAEVKKPGASVKVSCKVSGYSFTDHSIHWVRQAPGKGLEWMGGINPYTGDTIYAQKFQGRVTMTEDTSTDTAYMELSSLKSEDTAVYYCARDAYPYYYGMDVWGQGTTVTVSS VL: DIQMTQSPSSVSASVGDRVTITCRASQDIGNHLAWYQQKPGKAPKLLIYASSNLASGVPSRFSGSGSGTDFTLTISSLQPEDFANYYCHQYATYPWTFGGGTKVEIK | binds

Cited source for all entries: paper PMC8786865
